Target: Glucagon receptor (Homo sapiens, UniProt P47871)
Sequence (P47871 whole entry): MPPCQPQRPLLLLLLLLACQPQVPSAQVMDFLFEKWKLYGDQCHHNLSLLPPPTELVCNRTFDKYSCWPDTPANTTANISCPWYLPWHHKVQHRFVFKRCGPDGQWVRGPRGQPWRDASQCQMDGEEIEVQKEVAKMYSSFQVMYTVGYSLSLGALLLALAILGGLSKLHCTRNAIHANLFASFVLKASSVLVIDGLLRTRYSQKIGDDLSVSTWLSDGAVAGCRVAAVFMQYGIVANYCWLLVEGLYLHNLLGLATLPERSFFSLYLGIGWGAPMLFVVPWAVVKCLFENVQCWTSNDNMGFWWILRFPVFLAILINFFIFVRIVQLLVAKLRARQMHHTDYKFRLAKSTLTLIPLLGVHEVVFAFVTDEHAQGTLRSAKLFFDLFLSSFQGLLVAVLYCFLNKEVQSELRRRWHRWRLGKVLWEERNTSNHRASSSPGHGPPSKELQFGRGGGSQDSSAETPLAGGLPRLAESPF
Assay: Inhibitory concentration against cAMP production in hGR-CHO cells
Assay type: functional, cell-based
property.label: IC50 (nM)
Report as a plain number; the unit nM is understood.

Reported IC50 of CC(C)=Cc1c(C(C)C)nc(C(C)C)c(CO)c1-c1ccc(F)cc1 : 2000

----------
Below, each entry is listed alongside its reported pIC50.
Target: Glucagon receptor (Homo sapiens, UniProt P47871)
Assay: Inhibitory concentration against binding to the human glucagon receptor (hGR)
pIC50 is a log-scale quantity: -log10 of the concentration expressed in molar.

compound	val
CCCCc1c(C(C)C)nc(C(C)C)c(C(C)O)c1-c1ccc(F)cc1 (stereo not given)	6.60

Reported pIC50 of CCCCCc1c(C(C)C)nc(C(C)C)c(C(C)O)c1-c1ccc(F)cc1 (stereo not given) : 6.52

Reported pIC50 of COC(=O)c1c(C(C)C)nc(C(C)C)c(CO)c1-c1ccc(F)cc1 : 5.02

Reported pIC50 of CCCCCCc1c(C(C)C)nc(C(C)C)c(CO)c1-c1ccc(F)cc1 : 6.46
